Provide the reported signal (OD) in the competition assay of each item.
- TARGET_OF_ASSAY: biotinylated human IL-1Beta (human) (UniProt P01584)
- Sequence (P01584 117-269 limits assumed): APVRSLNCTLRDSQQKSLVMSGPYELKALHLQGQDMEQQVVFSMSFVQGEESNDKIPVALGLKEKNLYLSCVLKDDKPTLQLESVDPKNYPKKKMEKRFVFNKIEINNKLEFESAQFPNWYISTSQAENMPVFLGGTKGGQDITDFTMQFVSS
- METHOD_SUMMARY: competition ELISA: periplasmic Fab extract plus biotinylated IL-1Beta on coated mouse mAb (competitor); reduced signal means competition
Respond with the bare value in OD.

Q) I would be grateful if you could share the reported signal (OD) in the competition assay for antagonistic Fab 1B3 (Fab, part only; not given: lambda light chain, constant domains, V domains shown, not shown: a dimerising Fc or GST) VH: EVQLVQSGAELRNPGASVKVSCKASGYTFTSYYIDWVRQAPGQGLEWMGRIDPEDGGTKYAQKFQGRVTFTADTSTSTAYVELSSLRSEDTAVYYCARSGRYELDYWGQGTQVTVSS .
A) 0.444

Q) I would be grateful if you could share the reported signal (OD) in the competition assay for antagonistic Fab 1A1 (Fab, part only; not given: lambda light chain, constant domains, V domains shown, not shown: a dimerising Fc or GST) VH: EVQLVESGGGLVQPGGSLRLSCAASGFTFDDYAMSWVRQAPGKGLEWVSTISWNGGATYYAESMKGRFTISRDNAKNTLYLQMNSLKSEDTAVYYCAKPYYSDYVGVEYDYWGQGTQVTVSS .
A) 0.205

Q) I would be grateful if you could share the reported signal (OD) in the competition assay for antagonistic Fab 1C3 (Fab, part only; not given: lambda light chain, constant domains, V domains shown, not shown: a dimerising Fc or GST) VH: EVQLVESGGGLVQPGGSLRLSCAASGFTFSSYWMYWVRQAPGKGLEWVSAINTGGGRTYYADSVKGRFTISRDNAKNTLYLQMNSLKSEDTAVYYCAKGTSADGSSWYVPADPYDYWGQGTQVTVSS .
A) 0.386

Q) I would be grateful if you could share the reported signal (OD) in the competition assay for Fab 1G1 (clone related to 1B3) (Fab, part only; not given: light chain, V domains shown, part only) VH: EVQLVQSGAELRNPGASVKVSCKASGYTFTSYYTDWVRQAPGQGLEWMGRIDPEDGDTKYAQKFQGRVTFTADTSTSTAYVELTSLRSEDTAVYYCLRSGAYELDYWGQGTQVTVSS .
A) 0.498
